assayRemarks: Study A: single-dose pharmacokinetics of serum 25-hydroxyvitamin D3 in subjects with stage 3 or 4 CKD
Type: in vivo, human
experimentalParameters: human, serum, iv, 448 ug, observed 25-hydroxyvitamin D3; 448 μg iv single dose; read-out: Cmax mean (SD)
endpoint: Cmax

Which Cmax is listed for C=C1CC[C@H](O)C/C1=C/C=C1\CCC[C@]2(C)[C@@H]([C@H](C)CCCC(C)(C)O)CC[C@@H]12 [25-hydroxyvitamin D3] ?
134 ng/mL

---

assayRemarks: Study A: single-dose pharmacokinetics of serum 25-hydroxyvitamin D3 in subjects with stage 3 or 4 CKD
Assay type: in vivo, human
experimentalParameters: human, serum, iv, 448 ug, observed 25-hydroxyvitamin D3; 448 μg iv single dose; read-out: t1/2 median (converted)
endpoint: half-life (days)
I only need the number, in days, no unit after it.

Endpoint output: half-life of C=C1CC[C@H](O)C/C1=C/C=C1\CCC[C@]2(C)[C@@H]([C@H](C)CCCC(C)(C)O)CC[C@@H]12 [25-hydroxyvitamin D3] . Value?
70.6

---

assayRemarks: Study A: single-dose pharmacokinetics of serum 25-hydroxyvitamin D3 in subjects with stage 3 or 4 CKD
Assay type: in vivo, human
experimentalParameters: human, serum, iv, 448 ug, baseline-adjusted 25-hydroxyvitamin D3; 448 μg iv single dose; read-out: AUC0-inf mean
endpoint: AUC(0-inf) (ng·h/mL)
Output spec: scalar in ng·h/mL, unitless text.

Which AUC(0-inf) value belongs to C=C1CC[C@H](O)C/C1=C/C=C1\CCC[C@]2(C)[C@@H]([C@H](C)CCCC(C)(C)O)CC[C@@H]12 [25-hydroxyvitamin D3] ?
34500

---

assayRemarks: Study A: single-dose pharmacokinetics of serum 25-hydroxyvitamin D3 in subjects with stage 3 or 4 CKD
Assay type: in vivo, human
experimentalParameters: human, serum, iv, 448 ug, baseline-adjusted 25-hydroxyvitamin D3; 448 μg iv single dose; read-out: Cmax median
endpoint: Cmax (ng/mL)
Response body: numeric value in ng/mL, unit text excluded.

Name the recorded Cmax for C=C1CC[C@H](O)C/C1=C/C=C1\CCC[C@]2(C)[C@@H]([C@H](C)CCCC(C)(C)O)CC[C@@H]12 [25-hydroxyvitamin D3] .
111
